Can you tell me IC50 for the items I'm about to list?
system: LNCaP; assay: Cell growth inhibition assay, prostate cancer cell line LNCaP (medium with 10 ng/mL IL-6); type: cell-based; conditions: Homo sapiens, medium supplemented with 10 ng/mL of IL-6, 10,000 cells/well

COMPOUND	IC50
O=C(Nc1cccc(-c2cccnc2C(F)(F)F)c1)c1cc2ccc([N+](=O)[O-])cc2[nH]1 [Example 292]	> 10 µM

For every item in the list below, what is its measured IC50?
1. COc1ccc(C(F)(F)F)c(-c2cccc(NC(=O)c3cc4ccc([N+](=O)[O-])cc4[nH]3)c2)c1 [Example 282]
2. CS(=O)(=O)Nc1ccc2cc(C(=O)Nc3cccc(S(=O)(=O)c4cccc(C#N)c4)c3)[nH]c2c1 [Example 402]
3. C=CS(=O)(=O)Nc1ccc2sc(C(=O)Nc3cc(Cl)cc(C(C)(C)c4cc(OC(C)C)cc(OC(F)(F)F)c4)c3)cc2c1 [Example 207]

A:
> 10 µM
> 10 µM
> 1.1 µM
